- target_desc: androgen receptor (AdEasy+rAR, L929 cells) (Rattus norvegicus)
- Construct: expressed in transfected cells; host or cells: L929 cells transduced with adenovirus AdEasy+rAR
- Sequence (P15207 whole entry S389L): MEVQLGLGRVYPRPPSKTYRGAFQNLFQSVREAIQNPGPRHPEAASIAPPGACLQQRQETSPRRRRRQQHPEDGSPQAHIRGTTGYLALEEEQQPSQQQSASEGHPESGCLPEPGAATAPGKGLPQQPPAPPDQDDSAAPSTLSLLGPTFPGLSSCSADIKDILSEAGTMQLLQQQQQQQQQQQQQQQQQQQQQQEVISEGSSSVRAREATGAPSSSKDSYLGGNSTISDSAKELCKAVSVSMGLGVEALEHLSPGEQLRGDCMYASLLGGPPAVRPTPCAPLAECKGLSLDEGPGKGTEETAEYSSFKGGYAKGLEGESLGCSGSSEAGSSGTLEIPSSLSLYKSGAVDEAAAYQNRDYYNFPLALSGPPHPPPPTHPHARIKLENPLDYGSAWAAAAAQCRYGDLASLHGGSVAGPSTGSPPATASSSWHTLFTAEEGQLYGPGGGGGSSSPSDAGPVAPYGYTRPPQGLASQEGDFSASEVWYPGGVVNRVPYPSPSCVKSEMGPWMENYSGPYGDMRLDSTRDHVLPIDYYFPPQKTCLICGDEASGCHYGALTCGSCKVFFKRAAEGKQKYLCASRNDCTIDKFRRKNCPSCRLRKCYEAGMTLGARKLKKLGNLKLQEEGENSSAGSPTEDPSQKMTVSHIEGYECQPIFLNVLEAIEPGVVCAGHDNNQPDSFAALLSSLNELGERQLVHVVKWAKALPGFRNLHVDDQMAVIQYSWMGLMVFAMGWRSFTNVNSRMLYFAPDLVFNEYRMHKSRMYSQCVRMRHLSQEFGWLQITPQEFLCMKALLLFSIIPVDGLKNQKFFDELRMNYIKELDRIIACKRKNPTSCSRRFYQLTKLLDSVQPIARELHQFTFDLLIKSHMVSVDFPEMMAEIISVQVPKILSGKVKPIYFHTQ
- assay_comment: L929 Androgen Receptor Functional Assay, Adenovirus Transduction
- Format: cell-based
- measurement_setup: agonist testing, @ 8000 nM
quantity_measured: % Activity, L929 androgen receptor functional assay

| compound | endpoint_result |
| --- | --- |
| CCS(=O)(=O)CC(C)(O)c1cc2cc([N+](=O)[O-])c(C(F)(F)F)cc2[nH]1 (stereo not shown) | −1 @ 8000 nM % |
| CC(O)(CS(=O)(=O)c1ccc(N)cc1)c1cc2cc(Cl)c(C(F)(F)F)cc2[nH]1 (stereo not shown) | −2 @ 8000 nM % |
| CC(O)(CSc1ccccc1N)c1cc2cc(Cl)c(C(F)(F)F)cc2[nH]1 (stereo not shown) | 1 @ 8000 nM % |
| CCSCC(C)(O)c1cc2cc(C#N)c(C(F)(F)F)cc2[nH]1 (single isomer, unassigned) [Compound 217] | 0 @ 8000 nM % |
| CCSCC(C)(O)c1cc2cc(C#N)c(C(F)(F)F)cc2[nH]1 (stereo not shown) [Compound 209] | −3 @ 8000 nM % |
| CC(O)(CSCC(F)(F)F)c1[nH]c2cc(C(F)(F)F)c([N+](=O)[O-])cc2c1I (stereo not shown) | −1 @ 8000 nM % |

Which % Activity, L929 androgen receptor functional assay reading was recorded for the compound CCSCC(C)(O)c1cc2cc([N+](=O)[O-])c(C(F)(F)F)cc2[nH]1 (single isomer, unassigned) ?
0 @ 8000 nM %

Also CCS(=O)(=O)CC(C)(O)c1cc2cc(C#N)c(C(F)(F)F)cc2[nH]1 (single isomer, unassigned) ?
0 @ 8000 nM %

Also CC(O)(CSCC(F)(F)F)c1cc2cc([N+](=O)[O-])c(C(F)(F)F)cc2[nH]1 (stereo not shown) ?
−1 @ 8000 nM %

Also CCSCC(O)(CC)c1cc2cc(C#N)c(C(F)(F)F)cc2[nH]1 (stereo not shown) ?
0 @ 8000 nM %
